TESTED TARGET: Prostaglandin G/H synthase 1 (Rattus norvegicus)
Sequence (Q63921 whole entry): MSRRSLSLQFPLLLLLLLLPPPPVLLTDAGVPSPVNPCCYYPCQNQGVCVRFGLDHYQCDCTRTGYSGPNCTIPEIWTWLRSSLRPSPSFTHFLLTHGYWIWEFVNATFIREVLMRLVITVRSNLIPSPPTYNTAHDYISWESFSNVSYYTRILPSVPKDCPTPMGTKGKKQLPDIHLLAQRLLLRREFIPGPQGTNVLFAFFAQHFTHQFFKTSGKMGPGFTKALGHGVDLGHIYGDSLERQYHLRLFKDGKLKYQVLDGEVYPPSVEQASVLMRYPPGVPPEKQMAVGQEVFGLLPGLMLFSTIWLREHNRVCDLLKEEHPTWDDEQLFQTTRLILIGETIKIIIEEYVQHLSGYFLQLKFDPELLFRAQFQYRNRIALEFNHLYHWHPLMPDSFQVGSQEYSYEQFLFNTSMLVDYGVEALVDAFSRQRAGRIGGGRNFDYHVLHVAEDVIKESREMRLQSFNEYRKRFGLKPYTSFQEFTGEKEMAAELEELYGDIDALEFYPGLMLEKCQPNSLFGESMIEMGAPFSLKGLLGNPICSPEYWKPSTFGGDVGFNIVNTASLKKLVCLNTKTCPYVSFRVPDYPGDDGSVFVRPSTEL
pIC50: −log10 of the molar value.
Compiled record: pIC50 values for Prostaglandin G/H synthase 1 (Rattus norvegicus) across several sources.
MEASURED QUANTITY: pIC50

# count of solved cases: 4
{"MOLECULE": "CCc1ccc2c(n1)Oc1ccc(C(C)C(=O)O)cc1C2 (stereo not drawn)", "pIC50": 6.96}
{"MOLECULE": "CCOC(=O)c1c(C)oc2ccc(Oc3ccc4ccccc4c3)cc12", "pIC50": 4.32}
{"MOLECULE": "COc1ccc2c(Cc3ccccc3Cl)ccc(C(C)C(=O)O)c2c1 (stereo not drawn)", "pIC50": 5.64}
{"MOLECULE": "CCOC(=O)c1c(C)oc2ccc(Oc3ccccn3)cc12", "pIC50": 4.55}

A: CSc1ccc2c(Cc3ccc(Cl)cc3)ccc(C(C)C(=O)O)c2c1 (stereo not drawn)
B: COc1ccc2c(Cc3ccc(C)cc3)ccc(C(C)C(=O)O)c2c1 (stereo not drawn)
C: CCOC(=O)c1c(C)oc2ccc(Oc3ccc(C)cc3)cc12
Returns the items ordered by pIC50, from maximum to minimum. Answer by listing the labels in the requested order. B, A, C
